Sourced from patent US4564476A

tested on: guinea pig lung parenchymal tissue; test: Immunologically Mediated Contraction of the Parenchymal Strip (IMCPS); set-up: species or system guinea pig (male Hartley strain); details: Cavia porcellus, egg albumin induced contraction of sensitized guinea pig lung parenchymal strip, with chlorpheniramine 10.0 μM and indomethacin 100.0 μM, relative to control tissue, read-out: IMCPS % inhib. 100 μM

{"columns": ["Compound", "inhibition at 100 µM / %"],
 "data": [
  ["CC(C)(/C=C\\CCCCO)COCc1ccccc1", 38],
  ["COc1ccc(COCC(C)(C)/C=C\\CCCC(=O)O)cc1", 31],
  ["CC(C)(/C=C\\CCCC(=O)O)COCC=Cc1ccccc1 [Example 10c]", 44],
  ["CCCC=Cc1ccccc1COCC(C)(C)/C=C\\CCCC(=O)O [Example 11g]", 40],
  ["CC(C)(/C=C\\CCCC(=O)O)COCc1ccc(O)cc1", 4]
]}
